Tested on: K. pneumoniae ATCC 700603
Type: cell-based, Klebsiella pneumoniae
Settings: median of triplicate
Positions of bridges follow the written chain, without caps; N, C: chain ends. Non-standard residues stand in square brackets, D forms with d. Residues, ends and D or L forms follow the SMILES beside them. *: point of attachment. Ethyl(2-OBz) = O=C(OCC*)c1ccccc1; Dab = NCC[C@H](N)C(=O)O
assayReadout: MIC K. pneumoniae ATCC 700603 (µg/mL)
Respond with the bare value in µg/mL.

compound C[C@@H](O)[C@@H]1NC(=O)[C@H](CCN)NC(=O)[C@H](CCN)NC(=O)[C@H](CSCCOC(=O)c2ccccc2)NC(=O)[C@@H](Cc2ccccc2)NC(=O)[C@H](CCN)NC(=O)[C@@H](NC(=O)[C@H](CCN)NC(=O)[C@@H](NC(=O)[C@H](CCN)NC(=O)[C@@H](N)CSCCOC(=O)c2ccccc2)[C@@H](C)O)CCNC1=O [Compound 39] (H-C(Ethyl(2-OBz))[Dab]T[Dab][Dab][Dab][dF]C(Ethyl(2-OBz))[Dab][Dab]T; lactam 5-C) , MIC K. pneumoniae ATCC 700603 observed: 0.5
